Biological target: hERG K channel (Homo sapiens (Human))
Sequence (Q12809 whole entry): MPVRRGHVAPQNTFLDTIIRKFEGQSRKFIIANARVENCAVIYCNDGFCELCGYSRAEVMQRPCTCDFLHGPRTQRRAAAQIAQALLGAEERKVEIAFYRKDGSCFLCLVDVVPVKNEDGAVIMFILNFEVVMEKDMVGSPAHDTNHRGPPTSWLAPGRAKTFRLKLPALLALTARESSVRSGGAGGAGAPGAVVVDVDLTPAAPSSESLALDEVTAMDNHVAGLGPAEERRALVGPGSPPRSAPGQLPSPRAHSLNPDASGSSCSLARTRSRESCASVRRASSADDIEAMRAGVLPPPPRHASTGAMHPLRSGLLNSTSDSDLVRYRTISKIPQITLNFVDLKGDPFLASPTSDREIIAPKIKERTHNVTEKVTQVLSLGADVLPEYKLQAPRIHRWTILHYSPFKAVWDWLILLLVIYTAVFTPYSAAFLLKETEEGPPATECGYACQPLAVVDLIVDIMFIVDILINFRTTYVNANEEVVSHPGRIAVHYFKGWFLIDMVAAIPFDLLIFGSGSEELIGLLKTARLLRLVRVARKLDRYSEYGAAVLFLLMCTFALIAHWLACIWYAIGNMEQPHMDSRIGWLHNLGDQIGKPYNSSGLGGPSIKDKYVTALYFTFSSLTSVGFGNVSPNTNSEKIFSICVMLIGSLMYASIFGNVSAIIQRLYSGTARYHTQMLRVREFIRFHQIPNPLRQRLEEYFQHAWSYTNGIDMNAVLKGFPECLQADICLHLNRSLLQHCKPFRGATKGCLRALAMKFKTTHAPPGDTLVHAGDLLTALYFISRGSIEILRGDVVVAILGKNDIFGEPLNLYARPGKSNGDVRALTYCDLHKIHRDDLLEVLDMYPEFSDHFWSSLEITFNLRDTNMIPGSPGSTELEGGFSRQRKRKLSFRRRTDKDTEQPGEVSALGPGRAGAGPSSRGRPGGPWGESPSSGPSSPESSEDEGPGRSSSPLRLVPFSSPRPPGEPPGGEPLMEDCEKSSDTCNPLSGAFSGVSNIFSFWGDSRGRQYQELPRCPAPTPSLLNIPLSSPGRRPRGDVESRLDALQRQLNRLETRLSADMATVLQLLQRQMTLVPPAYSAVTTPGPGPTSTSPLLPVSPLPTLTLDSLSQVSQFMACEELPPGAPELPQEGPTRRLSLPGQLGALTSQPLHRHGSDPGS
Assay: hERG Q-Patch assay
Type: cell-based
Conditions: concentration 300 nM; CHO cells expressing hERG; K+ tail current 3 min after application; mean of two or three experiments
Consider the following molecules and their measured % block readings.

MOLECULE: CCOc1ncc(-c2nc(C(F)(F)F)sc2N2CCN(C(=O)Cn3nc(C)nc3C)[C@H](CO)C2)cn1 [Example 7]
UNIT INFO: %
% block: 24
//
MOLECULE: O=C(Cn1cnc(C(F)(F)F)n1)N1CCN(c2sc(C(F)(F)F)nc2-c2cnc(C(F)(F)F)nc2)C[C@H]1CO [Example 5]
UNIT INFO: %
% block: −2
//
MOLECULE: O=C(Cn1cnc(C2CC2)n1)N1CCN(c2sc(C(F)(F)F)nc2-c2cnc(C(F)(F)F)nc2)C[C@H]1CCO [Example 31]
UNIT INFO: %
% block: 2
//
MOLECULE: O=C(Cn1cnc(-c2ccccc2)n1)N1CCN(c2sc(C(F)(F)F)nc2-c2cnc(C(F)(F)F)nc2)C[C@@H]1CO [Example 19]
UNIT INFO: %
% block: 6
//
MOLECULE: O=C(Cn1cnc(C2CC2)n1)N1CCN(c2sc(C(F)(F)F)nc2-c2cnc(C(F)(F)F)nc2)C[C@H]1CO [Example 3]
UNIT INFO: %
% block: 0
//
MOLECULE: O=C(Cn1ccc(C2CC2)n1)N1CCN(c2sc(C(F)(F)F)nc2-c2cnc(C(F)(F)F)nc2)C[C@H]1CO [Example 44]
UNIT INFO: %
% block: 5
//
MOLECULE: Cc1nc(-c2ncn(CC(=O)N3CCN(c4sc(C(F)(F)F)nc4-c4cnc(C(F)(F)F)nc4)C[C@@H]3CO)n2)no1 [Example 18]
UNIT INFO: %
% block: 6
//
MOLECULE: Cc1ccn(CC(=O)N2CCN(c3sc(C(F)(F)F)nc3-c3cnc(C(F)(F)F)nc3)C[C@@H]2CO)n1 [Example 22]
UNIT INFO: %
% block: 4
//
MOLECULE: CC(C)c1ncn(CC(=O)N2CCN(c3sc(C(F)(F)F)nc3-c3ccc(C(F)(F)F)nc3)C[C@@H]2CO)n1 [Example 10]
UNIT INFO: %
% block: 2
//
MOLECULE: Cc1ncnn1CC(=O)N1CCN(c2sc(C(F)(F)F)nc2-c2cnc(C(F)(F)F)nc2)C[C@H]1CCO [Example 36]
UNIT INFO: %
% block: 10
//
MOLECULE: Cc1ncn(CC(=O)N2CCN(c3sc(C(F)(F)F)nc3-c3cnc(C(F)(F)F)nc3)C[C@@H]2CO)n1 [Example 16]
UNIT INFO: %
% block: 1
//
MOLECULE: Cc1nc(C)n(CC(=O)N2CCN(c3sc(C(F)(F)F)nc3-c3cnc(C(F)(F)F)nc3)C[C@H]2CCO)n1 [Example 27]
UNIT INFO: %
% block: 1
//
MOLECULE: CCc1ccn(CC(=O)N2CCN(c3sc(C(F)(F)F)nc3-c3cnc(C(F)(F)F)nc3)C[C@H]2CCO)n1 [Example 40]
UNIT INFO: %
% block: 5
//
MOLECULE: CC(C)c1ncn(CC(=O)N2CCN(c3sc(C(F)(F)F)nc3-c3cnc(C(F)(F)F)nc3)C[C@@H]2CO)n1 [Example 11]
UNIT INFO: %
% block: 5
//
MOLECULE: Cc1ccn(CC(=O)N2CCN(c3sc(C(F)(F)F)nc3-c3cnc(C(F)(F)F)nc3)C[C@H]2CCO)n1 [Example 39]
UNIT INFO: %
% block: 1
//
MOLECULE: Cc1ccn(CC(=O)N2CCN(c3sc(C(F)(F)F)nc3-c3cnc(C(F)(F)F)nc3)C[C@H]2CO)n1 [Example 42]
UNIT INFO: %
% block: 2
//
MOLECULE: O=C(Cn1ccc(C2CC2)n1)N1CCN(c2sc(C(F)(F)F)nc2-c2cnc(C(F)(F)F)nc2)C[C@H]1CCO [Example 41]
UNIT INFO: %
% block: 12
//
MOLECULE: CC(C)(C)c1ncn(CC(=O)N2CCN(c3sc(C(F)(F)F)nc3-c3cnc(C(F)(F)F)nc3)C[C@H]2CCO)n1 [Example 30]
UNIT INFO: %
% block: −2
//
MOLECULE: CCc1ncn(CC(=O)N2CCN(c3sc(C(F)(F)F)nc3-c3cnc(C(F)(F)F)nc3)C[C@H]2CCO)n1 [Example 32]
UNIT INFO: %
% block: 0
//
MOLECULE: CC(C)c1ncn(CC(=O)N2CCN(c3sc(C(F)(F)F)nc3-c3cnc(C(F)(F)F)nc3)C[C@H]2CO)n1 [Example 4]
UNIT INFO: %
% block: 4
//
MOLECULE: O=C(Cn1ccc2cc(F)ccc21)N1CCN(c2sc(C(F)(F)F)nc2-c2cnc(C(F)(F)F)nc2)C[C@@H]1CO [Example 14]
UNIT INFO: %
% block: 14
//
MOLECULE: CC(C)c1ncn(CC(=O)N2CCN(c3sc(C(F)(F)F)nc3-c3cnc(C(F)(F)F)nc3)C[C@H]2CCO)n1 [Example 34]
UNIT INFO: %
% block: 10
//
MOLECULE: CCc1ncnn1CC(=O)N1CCN(c2sc(C(F)(F)F)nc2-c2cnc(C(F)(F)F)nc2)C[C@H]1CCO [Example 33]
UNIT INFO: %
% block: −5
//
MOLECULE: Cc1nc(C)n(CC(=O)N2CCN(c3sc(C(F)(F)F)nc3-c3cnc(C(F)(F)F)nc3)C[C@H]2CO)n1 [Example 2]
UNIT INFO: %
% block: −3
//
MOLECULE: COCc1ncn(CC(=O)N2CCN(c3sc(C(F)(F)F)nc3-c3cnc(C(F)(F)F)nc3)C[C@@H]2CO)n1 [Example 17]
UNIT INFO: %
% block: 2
//
MOLECULE: CCc1ccn(CC(=O)N2CCN(c3sc(C(F)(F)F)nc3-c3cnc(C(F)(F)F)nc3)C[C@H]2CO)n1 [Example 43]
UNIT INFO: %
% block: 5
//
MOLECULE: CC(C)(C)c1ncn(CC(=O)N2CCN(c3sc(C(F)(F)F)nc3-c3cnc(C(F)(F)F)nc3)C[C@H]2CO)n1 [Example 1]
UNIT INFO: %
% block: 2
//
MOLECULE: O=C(Cn1cnc2ccccc21)N1CCN(c2sc(C(F)(F)F)nc2-c2cnc(C(F)(F)F)nc2)C[C@@H]1CO [Example 13]
UNIT INFO: %
% block: 5
